Tested on: PSMA-expressing LNCAP cancer xenografts
Assay: Biodistribution and tumor-to-background contrast ratios of 18F-labeled tracers
Type: in vivo, mouse (NODSCID 1L2RγKO male mice)
Details: 1 h
REPORTED_PROPERTY: Biodistribution Adrenal glands (% ID/g)

Solved entries:
[[record]]
compound = "C[N+](C)(Cc1cn(Cc2ccc(C(=O)NCCCC[C@H](NC(=O)N[C@@H](CCC(=O)O)C(=O)O)C(=O)O)cc2)nn1)C[B-](F)(F)[18F]"
test_target = "PSMA-expressing LNCAP cancer xenografts"
readout_units = "% ID/g"
readout_value = 4.65

[[record]]
compound = "O=C(O)CC[C@H](NC(=O)N[C@@H](CCCCNC(=O)c1ccc(Cn2cc(C[n+]3ccc([B-](F)(F)[18F])cc3)nn2)nc1)C(=O)O)C(=O)O [^18F-PSMA PyrBF3]"
test_target = "PSMA-expressing LNCAP cancer xenografts"
readout_units = "% ID/g"
readout_value = 6.66


[A] O=C(O)CC[C@H](NC(=O)N[C@@H](CCCCNC(=O)[C@H](Cc1ccc2ccccc2c1)NC(=O)[C@H]1CC[C@H](CNC(=O)Cn2cc(C[n+]3ccc([B-](F)(F)[18F])cc3)nn2)CC1)C(=O)O)C(=O)O [^18F-PSMA-617-PyrBF3]
[B] C[N+](C)(Cc1cn(CC(=O)NCCOCCOCCC(=O)N[C@@H](Cc2ccc3ccccc3c2)C(=O)NCCCC[C@H](NC(=O)N[C@@H](CCC(=O)O)C(=O)O)C(=O)O)nn1)C[B-](F)(F)[18F] [^18F-HTK01146]
Select one. Lower Biodistribution Adrenal glands: A or B # reply format: chosen label B

====

Tested on: PSMA-expressing LNCAP cancer xenografts
Assay: Biodistribution and tumor-to-background contrast ratios of 18F-labeled tracers
Format: in vivo, mouse (NODSCID 1L2RγKO male mice)
Conditions: 1 h
REPORTED_PROPERTY: Biodistribution Kidneys (% ID/g)

Completed entries (count: 5):
[[record]]
compound = "C[N+](C)(Cc1cn(CC(=O)NCCOCCOCCC(=O)N[C@@H](Cc2ccc3ccccc3c2)C(=O)NCCCC[C@H](NC(=O)N[C@@H](CCC(=O)O)C(=O)O)C(=O)O)nn1)C[B-](F)(F)[18F] [^18F-HTK01146]"
reported_property = "Biodistribution Kidneys"
readout_units = "% ID/g"
readout_value = 29.9

[[record]]
compound = "O=C(O)CC[C@H](NC(=O)N[C@@H](CCCCNC(=O)[C@H](Cc1ccc2ccccc2c1)NC(=O)[C@H]1CC[C@H](CNC(=O)Cn2cc(C[n+]3ccc([B-](F)(F)[18F])cc3)nn2)CC1)C(=O)O)C(=O)O [^18F-PSMA-617-PyrBF3]"
reported_property = "Biodistribution Kidneys"
readout_units = "% ID/g"
readout_value = 83.5

[[record]]
compound = "C[N+](C)(Cc1cn(Cc2ccc(C(=O)NCCCC[C@H](NC(=O)N[C@@H](CCC(=O)O)C(=O)O)C(=O)O)cc2)nn1)C[B-](F)(F)[18F] [F-18 HTK-01070]"
reported_property = "Biodistribution Kidneys"
readout_units = "% ID/g"
readout_value = 71.7

[[record]]
compound = "C[N+](C)(Cc1cn(CC(=O)NC[C@H]2CC[C@H](C(=O)N[C@@H](Cc3ccc4ccccc4c3)C(=O)NCCCC[C@H](NC(=O)N[C@@H](CCC(=O)O)C(=O)O)C(=O)O)CC2)nn1)C[B-](F)(F)[18F] [^18F-HTK01157]"
reported_property = "Biodistribution Kidneys"
readout_units = "% ID/g"
readout_value = 73.9

[[record]]
compound = "O=C(O)CC[C@H](NC(=O)N[C@@H](CCCCNC(=O)c1ccc(Cn2cc(C[n+]3ccc([B-](F)(F)[18F])cc3)nn2)nc1)C(=O)O)C(=O)O [^18F-PSMA PyrBF3]"
reported_property = "Biodistribution Kidneys"
readout_units = "% ID/g"
readout_value = 164


[a] C[N+](C)(Cc1ccc(C(=O)NCCCC[C@H](NC(=O)N[C@@H](CCC(=O)O)C(=O)O)C(=O)O)cc1)C[B-](F)(F)[18F] [F-18 HTK-01069]
[b] C[N+](C)(Cc1cn(Cc2ccc(C(=O)NCCCC[C@H](NC(=O)N[C@@H](CCC(=O)O)C(=O)O)C(=O)O)cn2)nn1)C[B-](F)(F)[18F] [^18F-HTK01130]
Between these two entries, a and b , state which has the higher Biodistribution Kidneys. Give the label of your selection. a

====

Tested on: PSMA-expressing LNCAP cancer xenografts
Assay: Biodistribution and tumor-to-background contrast ratios of 18F-labeled tracers
Type: in vivo, mouse (NODSCID 1L2RγKO male mice)
Settings: 1 h
REPORTED_PROPERTY: Tumor:Blood contrast ratio

[[record]]
molecule = "O=C(O)CC[C@H](NC(=O)N[C@@H](CCCCNC(=O)c1ccc(Cn2cc(C[n+]3ccc([B-](F)(F)[18F])cc3)nn2)nc1)C(=O)O)C(=O)O [^18F-PSMA PyrBF3]"
reported_property = "Tumor:Blood contrast ratio"
readout_value = 8.67


[A] C[N+](C)(Cc1ccc(C(=O)NCCCC[C@H](NC(=O)N[C@@H](CCC(=O)O)C(=O)O)C(=O)O)cc1)C[B-](F)(F)[18F] [F-18 HTK-01069]
[B] C[N+](C)(Cc1cn(CC(=O)NC[C@H]2CC[C@H](C(=O)N[C@@H](Cc3ccc4ccccc4c3)C(=O)NCCCC[C@H](NC(=O)N[C@@H](CCC(=O)O)C(=O)O)C(=O)O)CC2)nn1)C[B-](F)(F)[18F] [^18F-HTK01157]
Return label of the item with the larger Tumor:Blood contrast ratio. Candidates: A , B . # reply format: chosen label B
(B: 17.1, A: 10.8)

====

Tested on: PSMA-expressing LNCAP cancer xenografts
Assay: Biodistribution and tumor-to-background contrast ratios of 18F-labeled tracers
Format: in vivo, mouse (NODSCID 1L2RγKO male mice)
Details: 1 h
REPORTED_PROPERTY: Biodistribution Liver (% ID/g)

[[record]]
compound = "C[N+](C)(Cc1cn(Cc2ccc(C(=O)NCCCC[C@H](NC(=O)N[C@@H](CCC(=O)O)C(=O)O)C(=O)O)cc2)nn1)C[B-](F)(F)[18F]"
readout_value = 1.69

[[record]]
compound = "C[N+](C)(Cc1cn(Cc2ccc(C(=O)NCCCC[C@H](NC(=O)N[C@@H](CCC(=O)O)C(=O)O)C(=O)O)cn2)nn1)C[B-](F)(F)[18F] [^18F-HTK01130]"
readout_value = 1.26

[[record]]
compound = "C[N+](C)(Cc1cn(CC(=O)NC[C@H]2CC[C@H](C(=O)N[C@@H](Cc3ccc4ccccc4c3)C(=O)NCCCC[C@H](NC(=O)N[C@@H](CCC(=O)O)C(=O)O)C(=O)O)CC2)nn1)C[B-](F)(F)[18F] [^18F-HTK01157]"
readout_value = 1.14

[[record]]
compound = "O=C(O)CC[C@H](NC(=O)N[C@@H](CCCCNC(=O)c1ccc(Cn2cc(C[n+]3ccc([B-](F)(F)[18F])cc3)nn2)nc1)C(=O)O)C(=O)O [^18F-PSMA PyrBF3]"
readout_value = 1.28


====

System: PSMA-expressing LNCAP cancer xenografts
Experiment: Biodistribution and tumor-to-background contrast ratios of 18F-labeled tracers
Type: in vivo, mouse (NODSCID 1L2RγKO male mice)
Details: 1 h
Method: LNCap cell line was obtained from ATCC (LNCaP clone FGC, CRL-1740). It was established from a metastatic site of left supraclavicular lymph node of human prostatic adenocarcinoma. […] The collected cells number was counted with a Hausser Scientific (Horsham, Pa.) Hemacytometer. […] PET imaging experiments were conducted using Siemens Inveon micro PET/CT scanner. […] Then, a 10-min static PET imaging was performed to determined uptake in tumor and other organs. […]
REPORTED_PROPERTY: Biodistribution Testes (% ID/g)

Example results:
[[record]]
compound = "O=C(O)CC[C@H](NC(=O)N[C@@H](CCCCNC(=O)c1ccc(Cn2cc(C[n+]3ccc([B-](F)(F)[18F])cc3)nn2)nc1)C(=O)O)C(=O)O [^18F-PSMA PyrBF3]"
reported_property = "Biodistribution Testes"
readout_units = "% ID/g"
readout_value = 0.67

[[record]]
compound = "O=C(O)CC[C@H](NC(=O)N[C@@H](CCCCNC(=O)[C@H](Cc1ccc2ccccc2c1)NC(=O)[C@H]1CC[C@H](CNC(=O)Cn2cc(C[n+]3ccc([B-](F)(F)[18F])cc3)nn2)CC1)C(=O)O)C(=O)O [^18F-PSMA-617-PyrBF3]"
reported_property = "Biodistribution Testes"
readout_units = "% ID/g"
readout_value = 0.39

[[record]]
compound = "C[N+](C)(Cc1cn(Cc2ccc(C(=O)NCCCC[C@H](NC(=O)N[C@@H](CCC(=O)O)C(=O)O)C(=O)O)cn2)nn1)C[B-](F)(F)[18F] [^18F-HTK01130]"
reported_property = "Biodistribution Testes"
readout_units = "% ID/g"
readout_value = 0.30

[[record]]
compound = "C[N+](C)(Cc1ccc(C(=O)NCCCC[C@H](NC(=O)N[C@@H](CCC(=O)O)C(=O)O)C(=O)O)cc1)C[B-](F)(F)[18F]"
reported_property = "Biodistribution Testes"
readout_units = "% ID/g"
readout_value = 0.62

[[record]]
compound = "C[N+](C)(Cc1cn(Cc2ccc(C(=O)NCCCC[C@H](NC(=O)N[C@@H](CCC(=O)O)C(=O)O)C(=O)O)cc2)nn1)C[B-](F)(F)[18F]"
reported_property = "Biodistribution Testes"
readout_units = "% ID/g"
readout_value = 0.67


[A] C[N+](C)(Cc1cn(CC(=O)NC[C@H]2CC[C@H](C(=O)N[C@@H](Cc3ccc4ccccc4c3)C(=O)NCCCC[C@H](NC(=O)N[C@@H](CCC(=O)O)C(=O)O)C(=O)O)CC2)nn1)C[B-](F)(F)[18F] [^18F-HTK01157]
[B] C[N+](C)(Cc1cn(CC(=O)NCCOCCOCCC(=O)N[C@@H](Cc2ccc3ccccc3c2)C(=O)NCCCC[C@H](NC(=O)N[C@@H](CCC(=O)O)C(=O)O)C(=O)O)nn1)C[B-](F)(F)[18F] [^18F-HTK01146]
Endpoint returns the identifier whose Biodistribution Testes is numerically larger, either A or B . Refer to your chosen entry by its label in the reply. A
(A: 0.74 % ID/g, B: 0.18 % ID/g)
